tested on: CEM cells HIV-1 protection, formazan growth assay; test: NCI AIDS Antiviral Assay
This section presents molecules with their documented EC50 values.

Use the examples below as a reference point.
Cc1c(Cc2ccccc2)n(C(C)OCCN2C(=O)c3ccccc3C2=O)c(=O)[nH]c1=O (stereo unspecified) : > 200 µM
NC(CCC(=O)NCCCC(=O)O)C(=O)O (stereo unspecified) : > 85.1 µM
CC1(C)Nc2cccc3c(N=Nc4ccc(N=Nc5ccccc5)c5ccccc45)ccc(c23)N1 : > 200 µM

Query :: # returns recorded EC50 (system: CEM cells HIV-1 protection, formazan growth assay) for c1ccc2nocc2c1
Result :: > 2090 µM

Query :: Enter reported EC50 observed with CEM cells HIV-1 protection, formazan growth assay for COc1ccc2c(c1)OCCN(C)OC2c1cccc(Cl)c1 (stereo unspecified)
Result :: > 200 µM

Query :: Field: EC50 (CEM cells HIV-1 protection, formazan growth assay). Entry: COc1ccc(NC(=O)CC(=O)n2nc(C)c(N=Nc3ccc(C)c(C)c3)c2C)cc1
Result :: > 200 µM
